# TEST SYSTEM: ATPase family AAA domain-containing protein 2 (Homo sapiens)
# PROTOCOL DESCRIPTION: Binding affinity to ATAD2 bromodomain (981 to 1108 residues) (unknown origin) expressed in Escherichia coli BL21 (DE3) by BROMOscan method
MEASURE: Kd (nM)
Your answer should be a plain number; it is taken to be in nM.

response.value for Cc1nnc2c(NC3CCN(CC(C)(C)F)CC3)cc(C(=O)N3[C@@H]4c5ccccc5C[C@H]3C(=O)N[C@@H]4C(C)C)nn12 (field: Kd) = 1.26

---

# TEST SYSTEM: ATPase family AAA domain-containing protein 2 (Homo sapiens)
# Sequence (Q6PL18 whole entry): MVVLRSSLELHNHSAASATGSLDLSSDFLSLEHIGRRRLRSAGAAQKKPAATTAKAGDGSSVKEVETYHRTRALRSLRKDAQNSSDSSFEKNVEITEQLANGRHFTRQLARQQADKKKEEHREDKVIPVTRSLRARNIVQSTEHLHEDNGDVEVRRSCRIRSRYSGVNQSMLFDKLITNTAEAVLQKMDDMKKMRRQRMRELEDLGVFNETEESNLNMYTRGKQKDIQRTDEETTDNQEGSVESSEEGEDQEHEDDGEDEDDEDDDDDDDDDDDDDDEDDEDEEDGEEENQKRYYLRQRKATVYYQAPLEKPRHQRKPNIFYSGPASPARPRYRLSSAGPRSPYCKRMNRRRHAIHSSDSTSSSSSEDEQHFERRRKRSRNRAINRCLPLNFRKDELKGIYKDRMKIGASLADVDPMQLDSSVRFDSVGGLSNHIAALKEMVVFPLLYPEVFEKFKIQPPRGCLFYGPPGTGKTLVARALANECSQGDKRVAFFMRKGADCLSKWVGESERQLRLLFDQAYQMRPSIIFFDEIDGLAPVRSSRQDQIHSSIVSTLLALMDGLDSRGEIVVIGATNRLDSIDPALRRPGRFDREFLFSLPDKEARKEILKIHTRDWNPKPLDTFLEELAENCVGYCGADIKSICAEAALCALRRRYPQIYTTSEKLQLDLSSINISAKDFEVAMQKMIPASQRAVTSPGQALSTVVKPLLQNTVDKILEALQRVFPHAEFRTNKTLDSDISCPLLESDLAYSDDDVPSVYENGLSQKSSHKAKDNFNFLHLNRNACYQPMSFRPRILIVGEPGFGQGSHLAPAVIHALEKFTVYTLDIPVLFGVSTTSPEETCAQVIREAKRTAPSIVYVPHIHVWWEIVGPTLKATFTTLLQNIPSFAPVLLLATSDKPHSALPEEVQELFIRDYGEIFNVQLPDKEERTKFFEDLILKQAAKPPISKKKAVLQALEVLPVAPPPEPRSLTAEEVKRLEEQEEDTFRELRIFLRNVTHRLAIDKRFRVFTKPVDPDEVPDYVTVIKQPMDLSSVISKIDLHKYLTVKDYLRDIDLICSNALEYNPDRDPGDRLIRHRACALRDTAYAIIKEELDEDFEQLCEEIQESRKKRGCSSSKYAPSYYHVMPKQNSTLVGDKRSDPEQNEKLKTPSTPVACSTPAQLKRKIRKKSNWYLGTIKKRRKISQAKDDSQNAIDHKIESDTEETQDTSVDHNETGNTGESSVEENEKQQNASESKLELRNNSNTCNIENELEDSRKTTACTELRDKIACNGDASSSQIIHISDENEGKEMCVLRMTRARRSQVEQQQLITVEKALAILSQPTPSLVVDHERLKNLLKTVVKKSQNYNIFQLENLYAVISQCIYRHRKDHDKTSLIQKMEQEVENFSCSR
# PROTOCOL DESCRIPTION: Inhibition of GST-ATAD2 BD (951 to 1132 residues) (unknown origin) expressed in Escherichia coli BL21 (DE3) and biotinylated tetra-acetylated histone H4 peptides as substrate incubated for 30 mins by TR-FRET assay
For each record, write down the corresponding IC50.

response.value for Cn1cc(C(=O)N2[C@H]3Cc4ccccc4[C@@H]2CNC3=O)c2cc[nH]c2c1=O (field: IC50) = 1480 nM

response.value for Cc1cc(C(=O)N2[C@H]3Cc4ccccc4[C@@H]2CNC3=O)c[nH]c1=O (field: IC50) = 26300 nM

response.value for Cc1nnc2c(NCCCN3CCCC3)cc(C(=O)N3[C@@H]4c5ccccc5C[C@H]3C(=O)N[C@@H]4C(C)C)nn12 (field: IC50) = 14 nM

response.value for Cn1cc(C(=O)N2[C@H]3Cc4ccccc4[C@@H]2CNC3=O)cc(N)c1=O (field: IC50) = 34300 nM

response.value for Cn1cc(C(=O)N2[C@H]3Cc4ccccc4[C@@H]2CNC3=O)c2c([nH]c3ccccc32)c1=O (field: IC50) = 420 nM

response.value for Cc1nnc2c(N)cc(C(=O)N3[C@H]4Cc5ccccc5[C@@H]3CNC4=O)nn12 (field: IC50) = 280 nM

response.value for Cc1nnc2c(NC3CCN(C)CC3)cc(C(=O)N3[C@H]4Cc5ccccc5[C@@H]3CNC4=O)nn12 (field: IC50) = 300 nM

response.value for Cc1nnc2c(NC3CCN(C)CC3)nc(C(=O)N3[C@H]4Cc5ccccc5[C@@H]3CNC4=O)cn12 (field: IC50) = > 20000 nM
